Experiment: Cell Viability - LYMP2-003 (AID 965);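 further: cells exposed to compounds for 24 h before reading; nearly all actives have a fitted effect of over 50% in size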
Settings: LYMP2-003 lymphoblastoid cell viability; series mostly up to 92.2 µM
From the text: NIH Chemical Genomics Center [NCGC] NIH Molecular Libraries Screening Centers Network [MLSCN] National Institutes of Environmental Health Sciences [NIEHS] National Toxicology Program [NTP] We have developed a 1536-well cell-based assay for quantitative high throughput screening (qHTS) against a number of cell lines to determine in vitro cytotoxicity of small molecules. […] 8. Detection; Luminescence; Viewlux plate reader […]
Records with an inconclusive call do not appear. Active and inactive are the calls of the source. The call rests on the fitted dose curve; in most records, active means well fitted cell-killing curve with a large enough effect; inconclusive means small, poorly fitted or top-dose-only effect, or effect the other way; inactive means flat fitted curve, though single readings scatter.
Choose one outcome from this list and give only that: Y (active), N (inactive)

compound | assignedLabel
Brc1ccccc1 | N
CCOCN(C(=O)CCl)c1c(C)cccc1CC | Y
CCOc1ccc(N)cc1 | N
OCC(Br)CBr (stereo not drawn) | N
COC(=O)NC(=S)Nc1ccccc1NC(=S)NC(=O)OC | N

Task item: I'd appreciate the recorded outcome for `COC1=CC(=O)O[C@@H](/C=C/c2ccc3c(c2)OCO3)C1` from this test.
Reply: N

Task item: Answer briefly: the call reported for `Cc1cccc([N+](=O)[O-])c1` in this assay.
Reply: N

Task item: So what was the verdict on `CC(C)(C)OO` in this test?
Reply: N
